# EC50 annotations
- subject_of_test: UniProtKB P08659
- Sequence (P08659 whole entry): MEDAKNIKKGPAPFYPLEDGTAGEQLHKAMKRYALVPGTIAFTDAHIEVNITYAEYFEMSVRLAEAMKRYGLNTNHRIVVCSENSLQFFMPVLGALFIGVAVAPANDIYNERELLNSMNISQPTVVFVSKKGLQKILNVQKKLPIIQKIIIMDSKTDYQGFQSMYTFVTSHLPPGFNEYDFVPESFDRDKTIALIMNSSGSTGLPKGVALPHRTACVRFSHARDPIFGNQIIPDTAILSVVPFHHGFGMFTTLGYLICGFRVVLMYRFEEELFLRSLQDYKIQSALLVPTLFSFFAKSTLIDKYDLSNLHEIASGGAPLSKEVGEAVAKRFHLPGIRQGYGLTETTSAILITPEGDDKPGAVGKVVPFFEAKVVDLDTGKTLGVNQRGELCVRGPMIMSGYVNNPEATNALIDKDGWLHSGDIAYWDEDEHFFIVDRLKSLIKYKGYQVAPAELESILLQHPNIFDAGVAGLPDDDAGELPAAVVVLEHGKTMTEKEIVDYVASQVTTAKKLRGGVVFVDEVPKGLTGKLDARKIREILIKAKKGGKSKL
- assay_remarks: firefly luciferase enzyme inhibitors, dose response, biochemical, luminescence (AID 1891)
The source made the active and inactive calls.

The following compounds have reported results that may help.
compound	meas_value
COc1ccc(CC(=O)Nc2ccc(-c3cn4ccccc4n3)cc2)cc1OC	> 112 µM (not active)
CN(C)c1ccc(/C=N/NC(=O)c2ccnn2C)cc1	6.24 µM (active)
Cc1cc(-n2ccc(=O)[nH]c2=O)nc(-c2ccccc2)n1	> 112 µM (not active)
O=C(CSc1nnc(SCc2ccc(F)cc2)s1)Nc1ccc(C(=O)O)cc1	> 112 µM (not active)
Cc1c(OCC(=O)N2CCN(c3ccccc3)CC2)ccc2c3c(c(=O)oc12)CCCC3	> 112 µM (not active)
COc1ccc(C(=O)Nc2ccccc2C(=O)N/N=C/c2cccc3ccccc23)cc1	1.35 µM (active)
O=C(CN1CCN(c2ccccc2)CC1)N1N=CCC1c1ccccc1 (stereo not drawn)	> 112 µM (not active)
CCC(C)c1ccc(NC(S)=NC2CCN(Cc3ccccc3)CC2)cc1 (stereo not drawn)	> 112 µM (not active)

Query: Reported EC50 for UniProtKB P08659, given Cc1cccc(NC(=O)CNC(=O)COC(=O)CCS(=O)(=O)c2ccccc2)c1C ?
Result: > 112 µM (not active)

Query: Proceed to O=C(NCC1(N2CCCCC2)CCCCC1)c1ccc(NS(=O)(=O)c2ccc(F)cc2)cc1
Result: > 112 µM (not active)

Query: Proceed to COc1ccc(S(N)(=O)=O)cc1C(=O)NCCCN1CCN(c2cccc(Cl)c2)CC1.CS(=O)(=O)O
Result: > 112 µM (not active)

Query: Proceed to Cc1cc(C)c(C)c(OCC(O)CN2CCN(c3ccccn3)CC2)c1 (stereo not drawn)
Result: > 112 µM (not active)

Query: Proceed to COc1ccc(-c2nnc(-c3ccccc3)o2)cc1OC
Result: > 112 µM (not active)

* * *

- assay_remarks: inhibitors of intracellular T. cruzi replication, confirmation, NIH3T3 host cells, beta-gal luminescence (AID 2044);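 note: intracellular parasites grown in NIH/3T3 mouse fibroblasts as host cells; luminescent beta-galactosidase reporter signal from transgenic T. cruzi replicating inside host cells; inhibitors lower the luminescence signal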
- Assay type: functional, cell-based
The source made the active and inactive calls.
measured_metric: EC50

The following molecules have reported results that may help.
molecule	meas_value
OC(COc1ccc2cc(Br)ccc2c1)CN1CCCC1 (centres undefined)	3400 nM (active)
c1ccc(CCN2CCN(c3ncnc4c3cnn4-c3ccccc3)CC2)cc1	2380 nM (active)
Cc1c(CCOC(=O)c2cc([N+](=O)[O-])cc([N+](=O)[O-])c2)sc[n+]1CC(=O)c1ccccc1	1970 nM (active)
CC1=CC(C)(C)Nc2ccccc21	4500 nM (active)
CCCCCCCn1c2c(c(=N)c3ccccc31)CCC2	< 100 nM (active)

Query: Can you share its EC50? I mean this molecule: CCNc1nc(N)nc(Oc2ccc(OCCOc3ccc(Cl)cc3Cl)nn2)n1
Result: 668 nM (active)

Query: Proceed to CCN(CCCNC(=O)CCCOc1cc(=O)n(C)c2ccccc12)Cc1ccccc1
Result: 281 nM (active)

Query: Proceed to Cc1ccc(NC(=O)c2ccc(Nc3c([N+](=O)[O-])cc([N+](=O)[O-])cc3[N+](=O)[O-])cc2)cc1
Result: < 100 nM (active)

* * *

- subject_of_test: Aminopeptidase N (Plasmodium falciparum FcB1/Columbia, UniProt O96935)
- Sequence (O96935 whole entry): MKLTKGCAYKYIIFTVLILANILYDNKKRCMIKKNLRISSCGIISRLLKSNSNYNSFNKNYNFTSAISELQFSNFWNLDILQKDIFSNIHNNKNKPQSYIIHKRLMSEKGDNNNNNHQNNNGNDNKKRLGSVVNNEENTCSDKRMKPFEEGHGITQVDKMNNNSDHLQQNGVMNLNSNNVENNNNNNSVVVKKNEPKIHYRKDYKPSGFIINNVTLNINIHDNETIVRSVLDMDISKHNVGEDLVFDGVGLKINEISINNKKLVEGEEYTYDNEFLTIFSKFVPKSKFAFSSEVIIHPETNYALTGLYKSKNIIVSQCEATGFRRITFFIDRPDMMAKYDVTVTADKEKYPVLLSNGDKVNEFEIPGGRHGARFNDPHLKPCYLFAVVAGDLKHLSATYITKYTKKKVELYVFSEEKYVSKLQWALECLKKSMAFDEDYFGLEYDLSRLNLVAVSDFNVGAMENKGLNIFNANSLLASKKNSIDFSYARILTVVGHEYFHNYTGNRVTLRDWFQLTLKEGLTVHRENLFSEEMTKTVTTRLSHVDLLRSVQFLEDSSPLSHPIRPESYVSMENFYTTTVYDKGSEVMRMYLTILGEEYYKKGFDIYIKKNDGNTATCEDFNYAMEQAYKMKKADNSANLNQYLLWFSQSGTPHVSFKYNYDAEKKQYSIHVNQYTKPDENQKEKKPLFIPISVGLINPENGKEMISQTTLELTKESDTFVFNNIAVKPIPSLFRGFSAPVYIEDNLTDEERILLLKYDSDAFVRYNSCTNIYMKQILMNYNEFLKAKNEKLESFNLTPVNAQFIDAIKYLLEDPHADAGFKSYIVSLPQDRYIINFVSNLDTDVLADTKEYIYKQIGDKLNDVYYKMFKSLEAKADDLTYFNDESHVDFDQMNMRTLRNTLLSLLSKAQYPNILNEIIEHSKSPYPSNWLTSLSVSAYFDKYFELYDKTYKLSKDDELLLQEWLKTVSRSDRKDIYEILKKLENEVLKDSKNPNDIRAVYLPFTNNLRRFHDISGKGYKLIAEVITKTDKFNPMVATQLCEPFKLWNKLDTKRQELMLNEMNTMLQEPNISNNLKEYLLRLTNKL
- assay_remarks: P. falciparum M1AAP inhibitors, biochemical, fluorogenic H-Leu-NHMec substrate, 1536-well (AID 1445)
- Parameters: species or system Plasmodium falciparum 3D7, 3D7
Active and inactive are the calls of the source.
measured_metric: IC50

molecule	IC50
Cc1cc(=O)oc2c(CN3CCCCC3)c(O)c(Cl)cc12	59.6 µM (active)
Cc1c(C)c2cc(Cl)c(O)c(CN3CCCC(C)C3)c2oc1=O (stereo not given)	43.1 µM (active)
Cc1c(N2C(=O)C(O)=C(C(=O)c3ccc(Cl)cc3)C2c2ccccc2)c(=O)n(-c2ccccc2)n1C (stereo not given)	62.1 µM (active)
O=C(Nc1ccc(-n2ccnc2P(=O)(O)c2ccccc2)cc1)c1ccccc1Br	11.2 µM (active)

# next molecule below
Query: Can you share its IC50? I mean this molecule: Nc1ccc(-c2nc3ccc(N)cc3[nH]2)cc1
Result: 49.9 µM (active)

* * *

- assay_remarks: NIH-3T3 fibroblast cytotoxicity, dose response, cytotoxicity control, cell-based, fluorescence, Alamar Blue, secondary assay (AID 2327);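 note: NIH-3T3 mouse fibroblasts cultured with fluconazole at 8 µg/mL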
- Assay type: functional
The source made the active and inactive calls.
Entry note: the call must match one of t for active, f for inactive

These solved cases illustrate the format of a correct answer.
Cc1ccc(N2NC3(CCN(C(N)=O)CC3)NC2=O)cc1 t
CC(=O)c1nn(-c2cccc(Br)c2)cc1C(=O)c1ccc(C)cc1 f

From here, focus on the item given below.
Query: What did the test return for Cc1ccc(-[n+]2c(-c3ccccc3)cn3c2CCc2ccccc2-3)c(C)c1 ?
Result: t

* * *

- subject_of_test: Corticotropin-releasing factor receptor 2/Corticotropin-releasing factor-binding protein (Homo sapiens, UniProt P24387+Q13324)
- Sequence (Q13324 whole entry): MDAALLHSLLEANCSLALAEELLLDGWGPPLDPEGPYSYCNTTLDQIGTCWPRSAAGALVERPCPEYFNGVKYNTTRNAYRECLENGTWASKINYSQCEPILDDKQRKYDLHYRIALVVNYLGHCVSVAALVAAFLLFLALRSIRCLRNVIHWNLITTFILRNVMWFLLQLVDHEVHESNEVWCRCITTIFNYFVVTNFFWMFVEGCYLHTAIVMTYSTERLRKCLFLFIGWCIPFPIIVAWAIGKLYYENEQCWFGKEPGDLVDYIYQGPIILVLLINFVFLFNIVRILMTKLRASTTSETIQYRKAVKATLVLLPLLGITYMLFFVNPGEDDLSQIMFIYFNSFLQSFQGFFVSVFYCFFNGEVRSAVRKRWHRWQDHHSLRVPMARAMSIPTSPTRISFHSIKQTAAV
- Sequence (P24387 whole entry): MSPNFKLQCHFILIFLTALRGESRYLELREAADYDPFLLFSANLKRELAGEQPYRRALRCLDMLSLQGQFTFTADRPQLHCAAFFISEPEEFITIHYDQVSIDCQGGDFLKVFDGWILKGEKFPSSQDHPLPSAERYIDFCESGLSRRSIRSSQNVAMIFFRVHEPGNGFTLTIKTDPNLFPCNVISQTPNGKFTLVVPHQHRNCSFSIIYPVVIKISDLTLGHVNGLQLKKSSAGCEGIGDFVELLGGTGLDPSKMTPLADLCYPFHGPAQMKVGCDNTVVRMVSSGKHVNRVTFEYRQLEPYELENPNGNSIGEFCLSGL
- assay_remarks: activators of CRF receptor 2 with binding protein – uHTS hits, confirmation (AID 602473)
- Format: functional
- stated_conditions: read-out: EC50_Mean
Calls of active or inactive are those of the source.
Entry note: the call must match one of YES = active, NO = inactive

These solved cases illustrate the format of a correct answer.
compound	class
CNc1nc(Cl)nc(Nc2ccccc2)n1	NO
COc1ccc(NC(=S)NCc2cccnc2)cc1	NO
COC(=O)c1nc2n(n1)C(c1ccc([N+](=O)[O-])cc1)C(C(=O)Nc1ccc(Cl)cc1)=C(C)N2 (stereo not given)	NO

Query: What did the test return for COc1cccc(NC(=O)COC(=O)c2ccccc2C(=O)N2CCN(c3ccccc3)CC2)c1 ?
Result: NO

Query: Proceed to COc1cc(OC)cc(C(=O)N/N=C/c2ccc(OC)c(COc3ccc(F)cc3)c2)c1
Result: NO

Query: Proceed to Cc1ccccc1NC(=O)c1ccc(-c2ccc(Cl)cc2Cl)o1
Result: NO

Query: Proceed to Cc1c(C(=O)NCc2cccnc2)oc2ccccc12
Result: NO

Query: Proceed to CC(C)OC(=O)c1c(NS(=O)(=O)c2ccccc2)sc2c1CCCC2
Result: YES

Query: Proceed to CCOC(=O)c1cc(S(=O)(=O)Nc2ccc(F)cc2F)cn1C
Result: NO

Query: Proceed to CN(C)CCCNC(=O)c1ccccc1Oc1ccccc1
Result: NO

Query: Proceed to CC(C)NC(=S)NC(=O)c1ccc(-c2ccccc2)cc1
Result: NO

Query: Proceed to C/C=C/C=C/C(=O)OC(C)C(=O)Nc1cc([N+](=O)[O-])ccc1OC (stereo not given)
Result: NO

Query: Proceed to Cn1c(=O)c(C(=O)NNC(=O)c2ccccc2F)c(O)c2ccccc21
Result: YES

Query: Proceed to Cc1nc(-c2c(C(F)(F)F)noc2-c2ccc(O)cc2O)cs1
Result: NO

Query: Proceed to Cc1cccc(Oc2ccc(NC(=O)c3ccccc3C(=O)O)cc2)c1C
Result: YES

* * *

# IC50 annotations
- subject_of_test: Voltage-gated N-type calcium channel alpha-1B subunit/Amyloid beta A4 precursor protein-binding family A member 1 (Homo sapiens, UniProt Q00975+Q02410)
- Type: protein assay
Active and inactive are the calls of the source.

compound	measured_metric	meas_value
COC(=O)c1cc(NC(=O)c2ccccc2)c(=O)oc1/C=C/Nc1ccc(Oc2ccccc2)cc1	IC50	6.82 µM (active)
COc1cc(/C=C2\SC(=O)N(CC(=O)Nc3ccc(C)cc3)C2=O)cc(Cl)c1OCC(=O)O	IC50	6.91 µM (active)
CCOC(=O)c1sc2nc3c(SCCC(=O)O)cc(C(=O)c4cc(OC)ccc4O)cn3c(=O)c2c1C	IC50	8.15 µM (active)
O=C(CCN1C(=O)/C(=C/c2ccc(Cl)cc2)SC1=S)NC1C=CS(=O)(=O)C1 (stereo not given)	IC50	8.45 µM (active)

# next compound below
Query: Can you share its IC50? I mean this compound: CCOC(=O)c1nnn2c1nc(Nc1cccc(C(F)(F)F)c1)c1ccccc12
Result: 25.1 µM (active)

* * *

- subject_of_test: E3 ubiquitin-protein ligase XIAP (Homo sapiens, UniProt P98170)
- Sequence (P98170 whole entry): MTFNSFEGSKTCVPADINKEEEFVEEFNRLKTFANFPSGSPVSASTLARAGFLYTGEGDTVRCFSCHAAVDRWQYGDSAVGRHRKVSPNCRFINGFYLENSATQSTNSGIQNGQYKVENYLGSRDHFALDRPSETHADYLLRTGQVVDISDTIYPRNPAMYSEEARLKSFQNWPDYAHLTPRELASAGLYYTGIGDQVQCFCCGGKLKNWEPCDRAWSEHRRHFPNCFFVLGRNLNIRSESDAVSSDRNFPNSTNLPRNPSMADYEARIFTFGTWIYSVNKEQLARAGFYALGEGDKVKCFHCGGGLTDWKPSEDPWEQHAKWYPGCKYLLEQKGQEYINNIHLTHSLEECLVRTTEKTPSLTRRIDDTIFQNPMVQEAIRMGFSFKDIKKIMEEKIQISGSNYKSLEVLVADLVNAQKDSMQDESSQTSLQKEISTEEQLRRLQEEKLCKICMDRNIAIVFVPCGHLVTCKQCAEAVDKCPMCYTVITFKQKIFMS
- assay_remarks: Counter Screen using XIAP-Bir3 for Chemical Antagonists of Bir1/2 domains of IAP-family anti-apoptotic proteins. [Related pubchem assays (depositor defined):AID1018, AID1449, AID1514, AID1638, AID1749, AID1750, AID488957, AID488963]
Calls of active or inactive are those of the source.
measured_metric: IC50

molecule	subject_of_test	IC50
O=C(Nc1ccccc1-c1nnn(CC(=O)N2CCCc3ccccc32)n1)c1ccc(Cl)cc1	E3 ubiquitin-protein ligase XIAP (Homo sapiens, UniProt P98170)	> 100 µM (inactive)
Cc1cc(-c2nn3c(-c4ccccc4)nnc3s2)c2ccccc2n1	E3 ubiquitin-protein ligase XIAP (Homo sapiens, UniProt P98170)	> 100 µM (inactive)
CC1CCCN(C(C(=O)Nc2ccc(C(C)C)cc2)c2ccc3c(c2)OCO3)C1 (centres undefined)	E3 ubiquitin-protein ligase XIAP (Homo sapiens, UniProt P98170)	> 100 µM (inactive)

Query: Reported IC50 for E3 ubiquitin-protein ligase XIAP (Homo sapiens, UniProt P98170), given COc1ccc(S(=O)(=O)N2CCOC2CNC(=O)C(=O)NCCc2c[nH]c3ccccc23)cc1 (centres undefined) ?
Result: > 100 µM (inactive)

The values you see were collected from ChEMBL document CHEMBL1201862.
